src = the supplement of paper PMC10567573

- run description: protein stability index of a GFP-peptide fusion (GPS, HEK-293T) (PSI 1-6); higher = more stable;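 also: 24-mer peptide tiles fused after GFP, lentivirally expressed, FACS-sorted into six equal bins by GFP/DsRed ratio, decoded by Illumina sequencing, PSI is the read-weighted mean bin number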
- test conditions: treatment: DMSO; c terminus: a fixed tail appended
Each entry below carries its reported protein stability index.
Answer as a number with no unit attached.

INSERT INTO measurements (macromolecule_sequence, measured_value) VALUES
  ('DKDDEEKPKIEDVGSDEEDDSGKD [HSP90AB1]', 5.57),
  ('EEALENGPKESLPVIAAPSMWTRP [ACBD3]', 4.64);

Kindly consider the entry below.
Quick one: protein stability index of MENLLQATKSHVDKVIMKLGKTNA [DYNC2LI1] ?
3.24

====

- run description: protein stability index of a GFP-peptide fusion (GPS, HEK-293T) (PSI 1-6); higher = more stable
- test conditions: treatment: MLN4924 1 uM, 8 h; c terminus: a fixed tail appended
Answer no if protein stability index is under 4, and yes if it is 4 or more.

INSERT INTO assay_data (macromolecule_sequence, class_assignment) VALUES
  ('GAGAEESELQAYIAQCQDSPTSGK [MCOLN1]', 'yes'),
  ('SVLQSVWMEVLVLGVAQRSLPLQD [ESRRA]', 'no'),
  ('SAQYSQQLQAARNEYLLNLVATNA [FCHSD1]', 'no'),
  ('QVPEEMSRCRNSYTEQELKPLTLE [DLC1]', 'yes'),
  ('AALGSRGSCSTEVEKETQEKMTIL [ATP6V1G1]', 'no');

Reported protein stability index at or above 4? MAETVADTRRLITKPQNLNDAYGP [SNX3]
yes

Reported protein stability index at or above 4? LEGEDAHLSSQQASGQSYSSREVF [KRT16]
yes

Reported protein stability index at or above 4? TAEDAELSDFEECEETGELFEEPA [FCHSD1]
yes

Reported protein stability index at or above 4? TPVILVGCQLDLRYADLEAVNRAR [RHOBTB1]
no

====

- run description: protein stability index of a GFP-peptide fusion (GPS, HEK-293T) (PSI 1-6); higher = more stable
- test conditions: treatment: DMSO; c terminus: a fixed tail appended
Each entry below carries its reported protein stability index.
Answer as a number with no unit attached.

Examples with answers:
INSERT INTO results (macromolecule_sequence, measured_value) VALUES
  ('SFMTWLRSYIKLFQAPCQRCGKFL [MED27]', 2.6),
  ('YDGYRLRVEFPRSGRGTGRGGGGG [SRSF1]', 3.81),
  ('AVLTTHHHWDHARGNPELARLRPG [HAGHL]', 3.28),
  ('ETKGQINNSIKDLTDGHFENILAD [SERPINB5]', 4.84),
  ('TMRYINGLDPEPLPLMDLCRRSIR [SPSB4]', 3.31);

Quick one: protein stability index of ALREVYAHAVLGQHSHVVRYFSAW [WEE1] ?
2.36

Quick one: protein stability index of SPTSGSPRGSHSSALERLETKLHL [LURAP1L] ?
3.64

Quick one: protein stability index of GIEHAQCVPPSEFSEPSFITESYQ [ETS1] ?
4.44

Quick one: protein stability index of KWNTQTKARSYSYPHCTGISQQDP [ZC2HC1C] ?
3.33

Quick one: protein stability index of VGSVSVDCGPSRADRCSPKEDQAW [FBXO34] ?
3.66

Quick one: protein stability index of INSDTGVLYALRSFDYEQFHELQM [PCDHGA10] ?
2.2

Quick one: protein stability index of SLASQVHAAAVNGDKGALQRLIVG [INVS] ?
3.02

Quick one: protein stability index of SGDDKNSNYFSMDSMEGKRSPYAG [TRIM29] ?
4.5

Quick one: protein stability index of LSRDTVQESYENVDSLESHIPSQE [ZNF263] ?
5.26

Quick one: protein stability index of TLGGLNPSPSEVITPWTPSPSEKN [SMTNL2] ?
5.21

Quick one: protein stability index of TEMELLEVSQHIKMRMGGRVDFEE [CABP4] ?
4.11
